Biological target: AKT1 WT (Homo sapiens, UniProt P31749)
Sequence (P31749 whole entry): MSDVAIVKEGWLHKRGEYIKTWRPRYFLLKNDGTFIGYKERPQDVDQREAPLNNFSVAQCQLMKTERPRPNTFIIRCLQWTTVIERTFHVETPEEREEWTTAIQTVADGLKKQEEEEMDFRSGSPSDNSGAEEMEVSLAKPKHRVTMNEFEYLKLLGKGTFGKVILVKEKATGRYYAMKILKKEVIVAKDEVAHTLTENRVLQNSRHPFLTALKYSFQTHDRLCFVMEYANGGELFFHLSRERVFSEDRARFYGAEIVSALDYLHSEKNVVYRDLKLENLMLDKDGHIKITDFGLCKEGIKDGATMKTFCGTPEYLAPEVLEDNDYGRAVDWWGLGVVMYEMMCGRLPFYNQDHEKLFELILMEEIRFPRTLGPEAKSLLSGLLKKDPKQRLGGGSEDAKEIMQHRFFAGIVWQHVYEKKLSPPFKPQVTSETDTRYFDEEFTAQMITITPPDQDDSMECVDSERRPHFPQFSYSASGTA
Assay: Live cell AKT1 WT target engagement by NanoBRET competitive probe displacement
Details: HEK293 cells transfected with kinase-NanoLuciferase fusion, 2 h at 37° C.

- molecule: "C=CC(=O)N1CCC(N[C@H]2CCc3cc(-n4c(-c5cccnc5N)nc5ccc(C6CCC6)nc54)ccc32)CC1 [Example 195]"
  measured.target: "AKT1 WT (Homo sapiens, UniProt P31749)"
  IC50: "415 nM"
- molecule: "C=CC(=O)N1C[C@H]2C[C@@H]1CC2N[C@H]1CCc2cc(-n3c(-c4cccnc4N)nc4ccc(-n5cccn5)nc43)ccc21 (single isomer, unassigned) [Example 137]"
  measured.target: "AKT1 WT (Homo sapiens, UniProt P31749)"
  IC50: "14.2 nM"
- molecule: "C=CC(=O)N1CCC(N[C@H]2CCc3cc(-n4c(-c5cccnc5N)nc5ccc(-c6cnn(C)n6)nc54)ccc32)CC1 [Example 160]"
  measured.target: "AKT1 WT (Homo sapiens, UniProt P31749)"
  IC50: "9.31 nM"

* * *

Biological target: AKT1 E17K (Homo sapiens, UniProt P31749, E17K)
Sequence (P31749 whole entry E17K): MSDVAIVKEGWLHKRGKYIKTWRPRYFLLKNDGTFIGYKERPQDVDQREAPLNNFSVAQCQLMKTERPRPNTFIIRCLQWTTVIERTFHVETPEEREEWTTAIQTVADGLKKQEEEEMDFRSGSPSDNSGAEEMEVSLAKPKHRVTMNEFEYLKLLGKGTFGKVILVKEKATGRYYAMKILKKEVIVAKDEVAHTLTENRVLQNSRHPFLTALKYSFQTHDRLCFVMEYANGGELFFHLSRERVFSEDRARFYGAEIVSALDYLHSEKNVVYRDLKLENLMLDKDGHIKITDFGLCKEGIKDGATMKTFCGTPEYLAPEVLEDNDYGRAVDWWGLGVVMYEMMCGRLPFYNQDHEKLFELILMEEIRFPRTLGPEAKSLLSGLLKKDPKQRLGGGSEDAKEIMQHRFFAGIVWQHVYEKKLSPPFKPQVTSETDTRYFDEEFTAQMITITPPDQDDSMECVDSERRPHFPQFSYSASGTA
Assay: Live cell AKT1 E17K target engagement by NanoBRET competitive probe displacement
Details: HEK293 cells transfected with kinase-NanoLuciferase fusion, 2 h at 37° C.
pIC50: −log10 of the molar value.
pIC50 of 7 or higher: true (1). Under 7: false (0).

- molecule: "C=CC(=O)N1[C@H](C)CC(N[C@H]2CCc3cc(-n4c(-c5cccnc5N)nc5ccc(-n6cccn6)nc54)ccc32)C[C@@H]1C (single isomer, unassigned) [Example 87]"
  label.class: "false (0)"
- molecule: "C=CC(=O)N1CCC(NC2CCc3cc(-n4c(-c5cccnc5N)nc5ccc(C6CC6(F)F)nc54)ccc32)CC1 (single isomer, unassigned) [Example 245]"
  label.class: "true (1)"
- molecule: "C=CC(=O)N1CCC(N[C@H]2CCc3cc(-n4c(-c5cccnc5N)nc5ccc(-n6cccn6)nc54)ccc32)CC1CC#N (single isomer, unassigned) [Example 327]"
  label.class: "true (1)"
- molecule: "C=CC(=O)N1CCC(N[C@@H]2c3ccc(-n4c(-c5cccnc5N)nc5ccc(-n6cccn6)nc54)cc3CC2F)C[C@H]1C (single isomer, unassigned) [Example 143]"
  label.class: "false (0)"

* * *

Molecular target: AKT2 (Homo sapiens, UniProt P31751)
Sequence (P31751 whole entry): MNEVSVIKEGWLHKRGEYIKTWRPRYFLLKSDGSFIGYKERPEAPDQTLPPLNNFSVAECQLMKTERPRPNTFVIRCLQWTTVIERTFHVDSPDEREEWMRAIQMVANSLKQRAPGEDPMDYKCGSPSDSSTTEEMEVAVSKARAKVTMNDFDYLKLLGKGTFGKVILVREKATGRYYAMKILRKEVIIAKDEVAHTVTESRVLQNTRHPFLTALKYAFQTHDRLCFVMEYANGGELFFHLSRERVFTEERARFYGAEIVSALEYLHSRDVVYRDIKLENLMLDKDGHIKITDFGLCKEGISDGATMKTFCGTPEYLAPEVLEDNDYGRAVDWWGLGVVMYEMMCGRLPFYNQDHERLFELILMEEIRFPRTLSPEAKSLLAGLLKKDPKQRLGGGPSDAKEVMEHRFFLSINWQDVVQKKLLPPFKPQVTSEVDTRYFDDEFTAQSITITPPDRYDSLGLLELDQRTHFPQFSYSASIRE
Experiment: Live cell AKT2 target engagement by NanoBRET competitive probe displacement
Settings: HEK293 cells transfected with kinase-NanoLuciferase fusion, 2 h at 37° C.

- molecule: "C=CC(=O)N1CCc2ccc(C(=O)N[C@H]3CCc4cc(-n5c(-c6cccnc6N)nc6ccc(-n7cccn7)nc65)ccc43)cc21 [Example 7]"
  result.unit: "nM"
  IC50: 69.4
- molecule: "C=CC(=O)N1CCC(N[C@H]2CCc3cc(-n4c(-c5cccnc5N)nc5ccc(C6CC6)nc54)ccc32)C(C)C1 (single isomer, unassigned) [Example 230]"
  result.unit: "nM"
  IC50: 346
- molecule: "C=CC(=O)N1CCC(N[C@H]2CCc3cc(-n4c(-c5cccnc5N)nc5ccc(N6CCN(C)CC6)nc54)ccc32)CC1 [Example 259]"
  result.unit: "nM"
  IC50: 968

* * *

The entries below come with measured IC50 values attached.
Target: AKT2 (Homo sapiens, UniProt P31751)
Test: Live cell AKT2 target engagement by NanoBRET competitive probe displacement
Conditions: HEK293 cells transfected with kinase-NanoLuciferase fusion, 2 h at 37° C.

- compound: "C=CC(=O)N1CCC(N[C@H]2CCc3cc(-n4c(-c5cccnc5N)nc5ccc(-n6cccn6)nc54)ccc32)C(C)(F)C1 (single isomer, unassigned) [Example 309]"
  IC50: "22.4 nM"
- compound: "C=CC(=O)N1CCC(N[C@@H]2c3ccc(-n4c(-c5cccnc5N)nc5ccc(C6CC6)nc54)cc3CC2F)CC1 (single isomer, unassigned) [Example 203]"
  IC50: "874 nM"
- compound: "C=CC(=O)N1CCC(N[C@H]2CCc3cc(-n4c(-c5cccc(F)c5)nc5ccc(-n6cccn6)nc54)ccc32)CC1 [Example 240]"
  IC50: "309 nM"
- compound: "C=CC(=O)NC1CCC(N[C@H]2CCc3cc(-n4c(-c5cccnc5N)nc5ccc(-n6cccn6)nc54)ccc32)CC1 (single isomer, unassigned) [Example 48]"
  IC50: "1280 nM"
- compound: "C=CC(=O)N1CCC(N[C@@H]2c3ccc(-n4c(-c5cccnc5N)nc5ccc(-n6cccn6)nc54)cc3C[C@H]2F)CC1 [Example 75]"
  IC50: "511 nM"
- compound: "C=CC(=O)N1CCC(N[C@H]2CCc3cc(-n4c(-c5cccnc5N)nc5ccc(-n6nccn6)nc54)ccc32)C[C@H]1C (single isomer, unassigned) [Example 262]"
  IC50: "45.9 nM"
- compound: "C=CC(=O)N1CC(N2CCC(N[C@H]3CCc4cc(-n5c(-c6cccnc6N)nc6ccc(-n7cccn7)nc65)ccc43)CC2)C1 [Example 158]"
  IC50: "1870 nM"
- compound: "C=CC(=O)N1CCC(N[C@H]2CCc3cc(-n4c(-c5cccnc5N)nc5ccc(N6CCOCC6)nc54)ccc32)CC1 [Example 86]"
  IC50: "584 nM"
- compound: "C=CC(=O)N1C[C@H]2COC[C@@H](C1)C2N[C@H]1CCc2cc(-n3c(-c4cccnc4N)nc4ccc(C5CC5)nc43)ccc21 (single isomer, unassigned) [Example 172]"
  IC50: "211 nM"
- compound: "C=CC(=O)N1C[C@@H]2C[C@H]1CC2N[C@H]1CCc2cc(-n3c(-c4cccnc4N)nc4ccc(-n5cccn5)nc43)ccc21 (single isomer, unassigned) [Example 135]"
  IC50: "478 nM"
- compound: "C=CC(=O)N1CCC(N[C@H]2CCc3cc(-n4c(-c5cccnc5N)nc5ccc(-n6cccn6)nc54)ccc32)C(C)C1 (single isomer, unassigned) [Example 102]"
  IC50: "101 nM"
- compound: "C=CC(=O)N1CCC(N[C@H]2CCc3cc(-n4c(-c5cccnc5N)nc5ccc(-n6cccn6)nc54)ccc32)C(OC)C1 (single isomer, unassigned) [Example 115]"
  IC50: "40.4 nM"
- compound: "C=CC(=O)N1C2CCC1CC(N[C@H]1CCc3cc(-n4c(-c5cccnc5N)nc5ccc(-n6cccn6)nc54)ccc31)C2 (some centres unmarked) [Example 27]"
  IC50: "192 nM"
- compound: "C=CC(=O)N1CCC(N[C@H]2CCc3cc(-n4c(-c5cccnc5N)nc5ccc(-n6cccn6)nc54)ccc32)C(C#N)C1 (some centres unmarked) [Example 157]"
  IC50: "216 nM"
- compound: "C=CC(=O)N1CCC(NC2CCc3cc(-n4c(-c5cccnc5N)nc5ccc(C6CC6(F)F)nc54)ccc32)CC1 (single isomer, unassigned) [Example 245]"
  IC50: "354 nM"
- compound: "C=CC(=O)N1CCC(N[C@H]2CCc3cc(-n4c(-c5ccccc5)nc5ccc(C6CC6)nc54)ccc32)CC1 [Example 246]"
  IC50: "711 nM"
- compound: "C=CC(=O)N1CCC(N[C@@H]2c3ccc(-n4c(-c5cccnc5N)nc5ccc(-n6cccn6)nc54)cc3CC2F)C(C)C1 (single isomer, unassigned) [Example 291]"
  IC50: "358 nM"
- compound: "C=CC(=O)N1CCC(N[C@H]2CCc3cc(-n4c(-c5cccnc5N)nc5ccc(-c6cnccn6)nc54)ccc32)CC1 [Example 120]"
  IC50: "885 nM"
- compound: "C=CC(=O)N1CCC(N[C@H]2CCc3cc(-n4c(-c5cccnc5N)nc5ccc(-n6cccn6)nc54)ccc32)C[C@@H]1COC (single isomer, unassigned) [Example 165]"
  IC50: "163 nM"
- compound: "C=CC(=O)N1CCC(N[C@H]2CCc3cc(-n4c(-c5cccnc5N)nc5ccc(-n6cccn6)nc54)ccc32)CC1CC#N (single isomer, unassigned) [Example 339]"
  IC50: "78.8 nM"
- compound: "C=CC(=O)N1CCC(N[C@H]2CCc3cc(-n4c(-c5cccnc5N)nc5ccc(C6CCC6)nc54)ccc32)CC1 [Example 195]"
  IC50: "80.8 nM"
- compound: "Nc1ncccc1-c1nc2ccc(-n3cccn3)nc2n1-c1ccc2c(c1)CC[C@@H]2NC1CCN(C(=O)C(F)Cl)CC1 (some centres unmarked) [Example 173]"
  IC50: "324 nM"
- compound: "C=CC(=O)N1CCC(N[C@@H]2c3ccc(-n4c(-c5cccnc5N)nc5ccc(-n6ccc(F)n6)nc54)cc3CC2F)C[C@@H]1C (single isomer, unassigned) [Example 271]"
  IC50: "248 nM"
